Biological target: S. pneumoniae Topoisomerase IV ATPase (ParE) (Streptococcus pneumoniae serotype 4, UniProt Q59961)
Sequence (Q59961 whole entry): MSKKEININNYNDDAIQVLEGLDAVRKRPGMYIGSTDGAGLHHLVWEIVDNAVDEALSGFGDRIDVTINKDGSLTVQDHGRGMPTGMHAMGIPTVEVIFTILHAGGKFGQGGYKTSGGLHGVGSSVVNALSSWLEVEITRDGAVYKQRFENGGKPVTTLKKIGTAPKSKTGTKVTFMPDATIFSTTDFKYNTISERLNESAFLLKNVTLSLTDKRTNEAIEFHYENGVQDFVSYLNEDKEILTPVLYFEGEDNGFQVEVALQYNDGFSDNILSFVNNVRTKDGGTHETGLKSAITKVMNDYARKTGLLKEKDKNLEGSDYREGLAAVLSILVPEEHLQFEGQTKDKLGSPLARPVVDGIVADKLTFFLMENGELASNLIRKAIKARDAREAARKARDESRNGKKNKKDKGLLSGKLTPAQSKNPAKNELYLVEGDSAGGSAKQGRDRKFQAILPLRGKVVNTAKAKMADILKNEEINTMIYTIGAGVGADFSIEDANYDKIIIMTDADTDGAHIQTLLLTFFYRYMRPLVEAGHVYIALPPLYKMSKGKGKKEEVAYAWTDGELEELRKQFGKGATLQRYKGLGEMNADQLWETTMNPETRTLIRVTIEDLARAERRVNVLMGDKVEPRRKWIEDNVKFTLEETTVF
Experiment: S. pneumoniae Topoisomerase IV ATPase inhibition
Assay type: biochemical
Settings: values marked * are an average of two or more data points, read-out: % Inh (13 μM) of S. pneumoniae Topoisomerase IV ATPase
Source text: S. pneumoniae Topoisomerase IV ATPase Inhibition Activity: Compounds may be tested for inhibition of S. pneumoniae ParE ATPase activity using an ammonium molybdate/malachite green-based phosphate detection assay (Lanzetta, P. A., L. J. Alvarez, P. S. Reinach, and O. A. Candia, 1979, 100: 95-97). […] An IC50 measurement of compound potency for each compound can be determined from reactions performed in the presence of 10 different compound concentrations. […]
measured-parameter: inhibition at 13 µM (%)
Kindly provide the numeric value in % only, without the unit symbol.

>  <molecule>
COc1cc(Nc2ncc(-c3cnc(OC)c(C(=O)NS(=O)(=O)c4c(C)nn(C)c4C)c3)c(-n3nc(C(F)(F)F)cc3C)n2)cc(OC)c1 [Example 842]

>  <inhibition at 13 µM [%]>
97

$$$$

[in] Dear colleague, I am looking for the recorded inhibition at 13 µM of the following molecule: CCOC(=O)c1cncc(-c2cnc(Nc3ccc(F)c(Cl)c3)nc2N[C@H]2CC[C@H](O)CC2)c1 [Example 128]
[out] -16.2

[in] Dear colleague, I am looking for the recorded inhibition at 13 µM of the following molecule: CN(C)CCCNc1nc(Nc2ccc(F)c(Cl)c2)ncc1-c1cncc(C(=O)NCc2ccccc2)c1 [Example 371]
[out] 82.2

----------
The following compounds are shown together with reported inhibition at 13 µM values.
Biological target: S. pneumoniae Topoisomerase IV ATPase (ParE) (Streptococcus pneumoniae serotype 4)
Assay: S. pneumoniae Topoisomerase IV ATPase inhibition
Format: biochemical
Settings: values marked * are an average of two or more data points, read-out: % Inh (13 μM) of S. pneumoniae Topoisomerase IV ATPase
Kindly provide the numeric value in % only, without the unit symbol.

Illustrative cases are given below, each with its answer.
>  <smiles-repr>
CC(=O)NCCNc1nc(Nc2ccc(F)c(Cl)c2)ncc1-c1cncnc1

>  <inhibition at 13 µM, %>
76.3

$$$$
>  <smiles-repr>
CCOC(=O)c1cncc(-c2cnc(Nc3ccc(F)c(Cl)c3)nc2N2CCCC2)c1

>  <inhibition at 13 µM, %>
65.4

$$$$
>  <smiles-repr>
COc1ncc(-c2cnc(Nc3cc(C)cc(C)c3)nc2-n2nc(C(F)(F)F)cc2C)cc1C(=O)NS(C)(=O)=O

>  <inhibition at 13 µM, %>
97

$$$$
>  <smiles-repr>
COc1cc(Nc2ncc(-c3ccc(C(=O)O)s3)c(NCCCN(C)C)n2)c(OC)cc1Cl

>  <inhibition at 13 µM, %>
42.2

$$$$
>  <smiles-repr>
Cc1cc(C(F)(F)F)nn1-c1nc(Nc2ccc(F)c(Cl)c2)ncc1-c1cncc(S(=O)(=O)N2CCOCC2)c1

>  <inhibition at 13 µM, %>
100

$$$$
>  <smiles-repr>
COCCCNc1nc(Nc2ccc(F)c(Cl)c2)ncc1-c1nc(-c2ccccc2)c(C(=O)O)s1

>  <inhibition at 13 µM, %>
97

$$$$
>  <smiles-repr>
COc1cc(Nc2ncc(-c3cnc(OCCS(C)(=O)=O)c(C(=O)O)c3)c(-n3nc(C(F)(F)F)cc3C)n2)cc(OC)c1

>  <inhibition at 13 µM, %>
100

$$$$
>  <smiles-repr>
N#Cc1cc(F)cc(Nc2ncc(-c3cccc(/C=C/C(=O)O)c3)c(N3CCOCC3)n2)c1

>  <inhibition at 13 µM, %>
86

$$$$

[in] Dear colleague, I am looking for the recorded inhibition at 13 µM of the following compound: "COc1cc(Nc2ncc(-c3cnc(-n4cncn4)c(C(=O)O)c3)c(-n3ccc(C(F)(F)F)n3)n2)cc(OC)c1"
[out] 100

[in] Dear colleague, I am looking for the recorded inhibition at 13 µM of the following compound: "COc1cc(Nc2ncc(-c3cnc(OC)c(C(=O)NS(C)(=O)=O)c3)c(-n3ccc(C4CC4)n3)n2)cc(OC)c1"
[out] 100

[in] Dear colleague, I am looking for the recorded inhibition at 13 µM of the following compound: "COc1cc(F)cc(Nc2ncc(-c3cccc(/C=C/C(=O)O)c3)c(N3CCOCC3)n2)c1"
[out] 100

[in] Dear colleague, I am looking for the recorded inhibition at 13 µM of the following compound: "CN(C)CCCNc1nc(Nc2ccc(F)c(Cl)c2)ncc1-c1ccc(N)nc1"
[out] 71.7

[in] Dear colleague, I am looking for the recorded inhibition at 13 µM of the following compound: "O=C(O)c1cncc(-c2cnc(Nc3ccc(F)c(Cl)c3)nc2-n2cnc(C(F)(F)F)c2)c1"
[out] 70.8

----------
Molecular target: UniProt Q59961
Assay: S. pneumoniae Topoisomerase IV ATPase inhibition
Format: biochemical
Settings: values marked * are an average of two or more data points, read-out: % Inh (13 μM) of S. pneumoniae Topoisomerase IV ATPase
The following molecules are shown together with reported inhibition at 13 µM values.
Kindly provide the numeric value in % only, without the unit symbol.

Illustrative cases are given below, each with its answer.
>  <molecule>
CONC(=O)c1cc(-c2cnc(Nc3ccc(F)c(Cl)c3)nc2-n2ccc(C(F)(F)F)n2)cnc1OC [Example 1101]

>  <u>
%

>  <inhibition at 13 µM>
82

$$$$
>  <molecule>
Cc1cc(C)n(-c2nc(Nc3ccc(F)c(Cl)c3)ncc2-c2cncc(C(=O)O)c2)n1 [Example 316]

>  <u>
%

>  <inhibition at 13 µM>
80

$$$$
>  <molecule>
O=C(O)c1cncc(-c2cnc(Nc3ccc(F)c(Cl)c3)nc2NCCCN2CCCC2=O)c1 [Example 219]

>  <u>
%

>  <inhibition at 13 µM>
79

$$$$
>  <molecule>
CC1CCCN1c1nc(Nc2ccc(F)c(Cl)c2)ncc1-c1cncc(C(=O)O)c1 (centres unmarked) [Example 251]

>  <u>
%

>  <inhibition at 13 µM>
79.9

$$$$
>  <molecule>
COc1ncc(-c2cnc(Nc3cc(C)cc(Cl)c3)nc2-n2nc(C(F)(F)F)cc2C)cc1C(=O)O [Example 802]

>  <u>
%

>  <inhibition at 13 µM>
100

$$$$

[in] Dear colleague, I am looking for the recorded inhibition at 13 µM of the following molecule: COc1cc(C#N)cc(Nc2ncc(-c3cccc(/C=C/C(=O)O)c3)c(-n3ccc(C(F)(F)F)n3)n2)c1 [Example 728]
[out] 100

[in] Dear colleague, I am looking for the recorded inhibition at 13 µM of the following molecule: O=C(O)c1cc2cc(-c3cnc(Nc4ccc(F)c(Cl)c4)nc3N3CCOCC3)ccc2s1 [Example 306]
[out] 84.8

[in] Dear colleague, I am looking for the recorded inhibition at 13 µM of the following molecule: O=C(O)c1cncc(-c2cnc(Nc3ccc(F)c(S(=O)(=O)N4CCOCC4)c3)nc2N2CCOCC2)c1 [Example 444]
[out] 7

[in] Dear colleague, I am looking for the recorded inhibition at 13 µM of the following molecule: O=C(O)c1cncc(-c2cnc(Nc3ccc(F)c(Cl)c3)nc2NCc2ccco2)c1 [Example 237]
[out] 85.4

[in] Dear colleague, I am looking for the recorded inhibition at 13 µM of the following molecule: COc1cc(C)cc(Nc2ncc(-c3cc(C(=O)O)c(=O)n(C)c3)c(-n3nc(C(F)(F)F)cc3C)n2)c1 [Example 861]
[out] 100

[in] Dear colleague, I am looking for the recorded inhibition at 13 µM of the following molecule: Cn1cc(CNc2nc(Nc3ccc(F)c(Cl)c3)ncc2-c2cccc(/C=C/C(=O)O)c2)cn1 [Example 298]
[out] 80.7

----------
Target: S. pneumoniae Topoisomerase IV ATPase (ParE) (Streptococcus pneumoniae serotype 4, UniProt Q59961)
Test: S. pneumoniae Topoisomerase IV ATPase inhibition
Type: biochemical
Conditions: values marked * are an average of two or more data points, read-out: % Inh (13 μM) of S. pneumoniae Topoisomerase IV ATPase
The following compounds are shown together with reported inhibition at 13 µM values.
Kindly provide the numeric value in % only, without the unit symbol.

Illustrative cases are given below, each with its answer.
>  <compound>
O=C(O)c1cc(-c2cnc(Nc3ccc(F)c(Cl)c3)nc2N2CCOCC2)cc([N+](=O)[O-])c1 [Example 490]

>  <inhibition at 13 µM (%)>
100

$$$$
>  <compound>
NC(=O)c1cncc(-c2cnc(Nc3ccc(F)c(Cl)c3)nc2NCCc2cccnc2)c1 [Example 473]

>  <inhibition at 13 µM (%)>
62

$$$$
>  <compound>
Cc1cnc(C(=O)NCCCNc2nc(Nc3ccc(F)c(Cl)c3)ncc2-c2cncc(C(=O)O)c2)cn1 [Example 278]

>  <inhibition at 13 µM (%)>
77

$$$$
>  <compound>
NC(=O)c1cncc(-c2cnc(Nc3ccc(F)c(Cl)c3)nc2-n2ccc(C(F)(F)F)n2)c1 [Example 1124]

>  <inhibition at 13 µM (%)>
42

$$$$

[in] Dear colleague, I am looking for the recorded inhibition at 13 µM of the following compound: CN(C)CCCNc1nc(Nc2ccc(F)c(Cl)c2)ncc1-c1ccc(C(=O)N(C)C)cc1 [Example 364]
[out] 112

[in] Dear colleague, I am looking for the recorded inhibition at 13 µM of the following compound: CONC(=O)c1cncc(-c2cnc(Nc3ccc(F)c(Cl)c3)nc2NCCc2cccnc2)c1 [Example 476]
[out] 100

[in] Dear colleague, I am looking for the recorded inhibition at 13 µM of the following compound: Cc1cc(C(F)(F)F)nn1-c1nc(Nc2cccc(F)c2)ncc1-c1cccc(/C=C/C(=O)O)c1 [Example 622]
[out] 98

[in] Dear colleague, I am looking for the recorded inhibition at 13 µM of the following compound: O=C(O)/C=C/c1cccc(-c2cnc(Nc3ccc(F)c(Cl)c3)nc2-n2ccnn2)c1 [Example 333]
[out] 69.8

[in] Dear colleague, I am looking for the recorded inhibition at 13 µM of the following compound: CCS(=O)(=O)NC(=O)c1cc(-c2cnc(Nc3cc(C)cc(C)c3)nc2-n2ccc(C(F)(F)F)n2)cnc1OC [Example 822]
[out] 100

[in] Dear colleague, I am looking for the recorded inhibition at 13 µM of the following compound: COc1cc(C)cc(Nc2ncc(-c3cnc(OC)c(-c4n[nH]c(=O)o4)c3)c(-n3nc(C(F)(F)F)cc3C)n2)c1 [Example 1170]
[out] 100

[in] Dear colleague, I am looking for the recorded inhibition at 13 µM of the following compound: COc1cc(Nc2ncc(-c3cccc(/C=C/C(=O)O)c3)c(N3CC(C)OC(C)C3)n2)cc(C(F)(F)F)c1 (stereo not shown) [Example 348]
[out] 85.7

[in] Dear colleague, I am looking for the recorded inhibition at 13 µM of the following compound: CCN(CC)S(=O)(=O)c1cncc(-c2cnc(Nc3ccc(F)c(Cl)c3)nc2-n2ccc(C(F)(F)F)n2)c1 [Example 1033]
[out] 20

[in] Dear colleague, I am looking for the recorded inhibition at 13 µM of the following compound: O=C(O)c1cncc(-c2cnc(Nc3ccc(F)c(Cl)c3)nc2N2CCCC2)c1 [Example 280]
[out] 83.4

[in] Dear colleague, I am looking for the recorded inhibition at 13 µM of the following compound: CCn1cc(-c2cnc(Nc3cc(OC)cc(OC)c3)nc2-n2nc(C(F)(F)F)cc2C)cc(C(=O)O)c1=O [Example 919]
[out] 99

[in] Dear colleague, I am looking for the recorded inhibition at 13 µM of the following compound: CS(=O)(=O)c1cncc(-c2cnc(Nc3ccc(F)c(Cl)c3)nc2N2CCOCC2)c1 [Example 988]
[out] 69

[in] Dear colleague, I am looking for the recorded inhibition at 13 µM of the following compound: Cc1cc(C(F)(F)F)nn1-c1nc(Nc2ccc(F)c(Cl)c2)ncc1-c1cncc(C(=O)NCCNS(C)(=O)=O)c1 [Example 925]
[out] 88
